- System: purified X. dendrorhous enzyme (F-3)
- measurement-notes: Fructosyltransferase activity: sucrose 600 g/l incubated with purified enzyme at 60° C., HPLC
- Type: biochemical, Xanthophyllomyces dendrorhous
- condition-parameters: 186 h, new catalyst load (5 U) added after 140 hours
- Description: A study was carried out using a high concentration of sucrose (600 g/l), conditions which can favor the formation of glycosidic bonds in detriment of hydrolysis. […] On one hand, fructose (peak 1) and glucose (peak 2) are formed as hydrolytic products. On the other hand, two trisaccharides are formed: a majority product (peak 4), which is most likely neokestose [β-D-Fru-(2→6)-α-D-Glu-(1→2)-D-Fru] […]
Field: Composition of the reaction mixture. Provide a value for each of the compounds that follow.

State the recorded Composition of the reaction mixture for this entry: O=C[C@H](O)[C@@H](O)[C@H](O)[C@H](O)CO [glucose]
131.2 grams/liter

Please answer likewise for O=C(CO)[C@@H](O)[C@H](O)[C@H](O)CO [fructose]
76.0 grams/liter

Also OC[C@H]1O[C@@](CO)(O[C@H]2O[C@H](CO)[C@@H](O)[C@H](O)[C@H]2O)[C@@H](O)[C@@H]1O [sucrose] ?
323.1 grams/liter

Another compound: OC[C@H]1O[C@@](CO)(OC[C@@]2(O[C@H]3O[C@H](CO)[C@@H](O)[C@H](O)[C@H]3O)O[C@H](CO)[C@@H](O)[C@@H]2O)[C@@H](O)[C@@H]1O [1-kestose]
25.8 grams/liter

And OC[C@H]1O[C@@](CO)(OC[C@H]2O[C@H](O[C@]3(CO)O[C@H](CO)[C@@H](O)[C@@H]3O)[C@H](O)[C@@H](O)[C@@H]2O)[C@@H](O)[C@@H]1O [neokestose] ?
43.9 grams/liter

---

- Tested on: purified X. dendrorhous enzyme (F-3)
- measurement-notes: Fructosyltransferase activity: sucrose 600 g/l incubated with purified enzyme at 45° C., HPLC
- Assay type: biochemical, Xanthophyllomyces dendrorhous
- condition-parameters: 45° C., reaction time 160 h, 600 g sucrose/l, 5 U/ml
experimental-readout: Composition of the reaction mixture (grams/liter)
Numbers only here, please. The scale is grams/liter.

What does the data say about its Composition of the reaction mixture? Entry: OC[C@H]1O[C@@](CO)(OC[C@H]2O[C@H](O[C@]3(CO)O[C@H](CO)[C@@H](O)[C@@H]3O)[C@H](O)[C@@H](O)[C@@H]2O)[C@@H](O)[C@@H]1O
53.3

And the next one, O=C(CO)[C@@H](O)[C@H](O)[C@H](O)CO ?
65.1

Now this one: OC[C@H]1O[C@@](CO)(O[C@H]2O[C@H](CO)[C@@H](O)[C@H](O)[C@H]2O)[C@@H](O)[C@@H]1O
338.9

Same lookup for OC[C@H]1O[C@@](CO)(OC[C@@]2(O[C@H]3O[C@H](CO)[C@@H](O)[C@H](O)[C@H]3O)O[C@H](CO)[C@@H](O)[C@@H]2O)[C@@H](O)[C@@H]1O , please.
33.5

Item: O=C[C@H](O)[C@@H](O)[C@H](O)[C@H](O)CO
109.3

---

- System: X. dendrorhous F-3 fraction (purified fructofuranosidase)
- measurement-notes: Hydrolytic (fructofuranosidase) activity of the purified enzyme F-3 on different substrates
- Assay type: biochemical, Xanthophyllomyces dendrorhous
- condition-parameters: purified protein, 1% substrate
Provide the reported log10 of Specific activity of each item.
Friendly reminder: values = log10 of Specific activity, unit U/μg.

Look up log10 of Specific activity for this compound: OC[C@H]1O[C@@](CO)(OC[C@@]2(O[C@H]3O[C@H](CO)[C@@H](O)[C@H](O)[C@H]3O)O[C@H](CO)[C@@H](O)[C@@H]2O)[C@@H](O)[C@@H]1O [1-kestose]
1.61

Also OC[C@H]1O[C@@](CO)(O[C@H]2O[C@H](CO)[C@@H](O)[C@H](O)[C@H]2O)[C@@H](O)[C@@H]1O [sucrose] , if possible.
2.83

What would you report for OC[C@H]1O[C@H](OC[C@H]2OC(O)(CO)[C@@H](O)[C@@H]2O)[C@H](O)[C@@H](O)[C@@H]1O (some centres unmarked) [palatinose] ?
0.70

Input OC[C@H]1O[C@@](CO)(OC[C@@]2(OC[C@@]3(O[C@H]4O[C@H](CO)[C@@H](O)[C@H](O)[C@H]4O)O[C@H](CO)[C@@H](O)[C@@H]3O)O[C@H](CO)[C@@H](O)[C@@H]2O)[C@@H](O)[C@@H]1O [nistose]
1.11

Next compound: OC[C@H]1O[C@H](OC[C@H]2O[C@H](O[C@]3(CO)O[C@H](CO)[C@@H](O)[C@@H]3O)[C@H](O)[C@@H](O)[C@@H]2O)[C@H](O)[C@@H](O)[C@H]1O [raffinose]
0.90
